- PROTOCOL_SUMMARY: logP (HPLC)
ENDPOINT_NAME: chromatographic logP

MOLECULE	ENDPOINT_NAME	RECORDED_NUMBER
CSc1nc2nc(O)c(-c3c(F)cc(F)cc3F)c(O)n2n1 [Example 585]	chromatographic logP	0.47
CSc1nc2nc(Cl)c(-c3c(F)cc(F)cc3F)c(Cl)n2n1 [Example 568]	chromatographic logP	3.43
CSc1nc2nc(Cl)c(-c3c(Cl)cccc3Cl)c(Cl)n2n1 [Example 572]	chromatographic logP	3.86
CSc1nc2nc(Cl)c(-c3c(F)cc(F)cc3F)c(N3CCC(C(F)(F)F)CC3)n2n1 [Example 1]	chromatographic logP	4.1

These data points were gathered from patent US20040157863A1.
